Catalogue of self-cleavage values
B1: HDV Ribozyme (parent)
chain: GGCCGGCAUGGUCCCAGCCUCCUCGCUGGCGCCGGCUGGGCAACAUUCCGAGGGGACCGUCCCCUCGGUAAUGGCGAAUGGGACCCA

Variants of: B1
Assay: self-cleavage, relative activity (ratio to wild type); higher = more cleavage; co-transcriptional
REPORTED METRIC: self-cleavage

# MUTATION NAME, READOUT VALUE
rows = [
    ("C19G A56C", 0.0489),
    ("G68U G81A", 0.492),
    ("U65A C66A", 1.08),
    ("C18G G52C", 0.0554),
    ("C30U C36U", 0.244),
    ("G6A G82A", 0.252),
    ("G34U U69A", 0.102),
    ("G2U G74A", 0.0163),
    ("C58G G74U", 0.511),
    ("U27G G38C", 0.0692),
    ("C19G G80A", 0.131),
    ("C18U A56U", 0.745),
    ("G31C G55C", 0.327),
    ("U60G A87U", 0.906),
    ("C33A G81C", 0.222),
    ("G53A C85A", 0.933),
    ("G55C G76A", 1.18),
    ("G25U C41U", 0.188),
    ("G54C U79C", 0.482),
    ("G2A U72G", 0.0906),
    ("A16C G52U", 0.643),
    ("C36A U72C", 0.0405),
    ("C22A C33A", 0.0314),
    ("G10U G40A", 0.745),
    ("G1C U46C", 0.229),
    ("C3A A51U", 0.599),
    ("A16U A45C", 0.462),
    ("C61G C84A", 0.708),
    ("G53A A87C", 1.1),
    ("G2A U23A", 0.219),
    ("G2C C66U", 0.0373),
    ("C19G G31A", 0.0554),
    ("A16G C22G", 0.185),
    ("U12A G29C", 0.0386),
    ("C58A C66U", 0.917),
    ("G11A G82U", 0.0744),
    ("C15G C58A", 0.437),
    ("G2A C14A", 0.0804),
    ("G35A C48U", 0.499),
    ("G25U G55U", 0.151),
    ("C19A A78G", 0.0845),
    ("G1A G59U", 0.214),
    ("G31C G76A", 0.453),
    ("C18A C32A", 0.106),
    ("U27A C86A", 0.733),
    ("G38A U47A", 0.0594),
    ("U27A G34A", 0.256),
    ("G1A C75A", 0.161),
    ("C13U G81C", 0.249),
    ("G17U G50U", 0.609),
    ("G1C G38A", 0),
    ("G31A U37A", 0.128),
    ("C32U A78G", 0.525),
    ("A45U C57G", 0.831),
    ("A8G C41U", 0.917),
    ("A70G A71G", 0.918),
    ("C44U U47G", 0.677),
    ("C84U C86A", 0.767),
    ("G5C C58U", 0.293),
    ("C30G C63U", 0.0231),
    ("C41U A70C", 0.803),
    ("C57U C85G", 0.984),
    ("C61G U65A", 0.639),
    ("A8C U23C", 0.506),
    ("G11A G82A", 0.253),
    ("A70G G76A", 0.92),
    ("G1C C33A", 0.222),
    ("U46A C66A", 0.727),
    ("G50U G53U", 0.735),
    ("G10A C66G", 0.623),
    ("G40A C61G", 1.17),
    ("C4G U47A", 0.346),
    ("C13A G31A", 0.0594),
    ("G53A A56G", 0.875),
    ("G40A A43C", 0.601),
    ("C4A A87U", 0.39),
    ("G11U G31U", 0.129),
    ("C18A G29C", 0.266),
    ("C24U C44G", 0.119),
    ("A16G C62U", 1.13),
    ("C22U C75G", 0.208),
    ("G5A G67U", 0.17),
    ("G11U G81U", 0.138),
    ("C30G C85U", 0.0302),
    ("G1C C26U", 0.0898),
    ("G59U G67U", 1.17),
    ("C24A C86U", 0.633),
    ("U9G C63G", 1.17),
    ("U27C G73U", 0.0449),
    ("C4G U23G", 0.0386),
    ("U60C A71C", 1.27),
]
